Target: Ephrin type-A receptor 2 [596-900] (Homo sapiens)
Sequence (P29317 whole entry): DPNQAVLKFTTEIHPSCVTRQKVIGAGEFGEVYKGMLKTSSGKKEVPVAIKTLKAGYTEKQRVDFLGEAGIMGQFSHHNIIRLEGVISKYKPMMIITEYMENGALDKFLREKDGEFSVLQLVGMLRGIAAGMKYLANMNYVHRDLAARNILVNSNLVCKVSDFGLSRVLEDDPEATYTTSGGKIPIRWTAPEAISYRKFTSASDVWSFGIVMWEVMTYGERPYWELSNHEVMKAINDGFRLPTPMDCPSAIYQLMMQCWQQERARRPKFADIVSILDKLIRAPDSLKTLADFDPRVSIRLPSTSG
Mark each entry Condition met if its Kd sits below 300 nM, and Condition not met for all others.

Example cases with answers are listed next.
[[record]]
molecule = "CN1CCN(CCOc2cc(OC3CCOCC3)c3c(Nc4c(Cl)ccc5c4OCO5)ncnc3c2)CC1"
assigned_class = "Condition not met"

[[record]]
molecule = "COc1cc(N2CCC(N3CCN(C)CC3)CC2)ccc1Nc1ncnc(Nc2ccccc2S(=O)(=O)C(C)C)n1 [ASP-3026]"
assigned_class = "Condition not met"

[[record]]
molecule = "C[C@@H](NC(=O)c1ncnc(N)c1Cl)c1ncc(C(=O)Nc2cc(C(F)(F)F)c(Cl)cn2)s1 [MLN-2480]"
assigned_class = "Condition not met"

[[record]]
molecule = "COc1cc(Nc2ncc3c(n2)-c2ccc(Cl)cc2C(c2c(F)cccc2OC)=NC3)ccc1C(=O)O [Alisertib]"
assigned_class = "Condition met"

[[record]]
molecule = "CCS(=O)(=O)c1cccc(-c2cc(C(=O)NC3CCN(C)CC3)c(C)c3[nH]c4ncc(C)cc4c23)c1"
assigned_class = "Condition met"


-- ask Is the reported Kd for COc1cc2nccc(Oc3ccc(NC(=O)Nc4cc(C)on4)c(Cl)c3)c2cc1OC [Tivozanib] strictly below 300 nM?
-- reply Condition met

-- ask Is the reported Kd for CNC(=O)c1cc(Oc2ccc(NC(=O)Nc3ccc(Cl)c(C(F)(F)F)c3)c(F)c2)ccn1 strictly below 300 nM?
-- reply Condition not met
